- assaySystem: Estrogen receptor (Homo sapiens)
- assayDetails: ERalpha ligand binders by competition, primary screen, cell-based, Cos7 ERalpha-GFP, flow cytometry (AID 1211);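 note: 0% = DMSO vehicle wells and 100% = no E2-Alexa633 signal left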
- experimentalConditions: fluorescent ligand competition, at 10 µM, hits give high values
readoutKind: inhibition of ligand binding (%)
Entry rule: numbers only, all in %.

Before answering, review these 5 worked examples.
CCc1ccc(Nc2cc(C(=O)NCCCN3CCOCC3)c3ccccc3n2)cc1	25
CC(Cc1ccc(O)c(O)c1)C(C)Cc1ccc(O)c(O)c1 (stereo unspecified)	47
CC(=O)c1ccc2c(c1)C1C=CCC1C(c1ccc(S(=O)(=O)N3CCOCC3)cc1)N2 (stereo unspecified)	0
Cc1nc2ccccc2c(=O)n1/N=C/c1c(O)ccc2oc3c(c12)CCCC3	48
O=c1cc(CSc2nnnn2-c2ccccc2)nc(Nc2ccc(F)cc2)[nH]1	26

Return reported inhibition of ligand binding; argument: `O=S(=O)(NCc1csc(-c2cccnc2)n1)c1cccs1`
22
